System Name: EHMT2 (Homo sapiens)
Construct: endogenous in cells; host or cells: MDA-MB-231 (ATCC)
Sequence (Q96KQ7 1-1210): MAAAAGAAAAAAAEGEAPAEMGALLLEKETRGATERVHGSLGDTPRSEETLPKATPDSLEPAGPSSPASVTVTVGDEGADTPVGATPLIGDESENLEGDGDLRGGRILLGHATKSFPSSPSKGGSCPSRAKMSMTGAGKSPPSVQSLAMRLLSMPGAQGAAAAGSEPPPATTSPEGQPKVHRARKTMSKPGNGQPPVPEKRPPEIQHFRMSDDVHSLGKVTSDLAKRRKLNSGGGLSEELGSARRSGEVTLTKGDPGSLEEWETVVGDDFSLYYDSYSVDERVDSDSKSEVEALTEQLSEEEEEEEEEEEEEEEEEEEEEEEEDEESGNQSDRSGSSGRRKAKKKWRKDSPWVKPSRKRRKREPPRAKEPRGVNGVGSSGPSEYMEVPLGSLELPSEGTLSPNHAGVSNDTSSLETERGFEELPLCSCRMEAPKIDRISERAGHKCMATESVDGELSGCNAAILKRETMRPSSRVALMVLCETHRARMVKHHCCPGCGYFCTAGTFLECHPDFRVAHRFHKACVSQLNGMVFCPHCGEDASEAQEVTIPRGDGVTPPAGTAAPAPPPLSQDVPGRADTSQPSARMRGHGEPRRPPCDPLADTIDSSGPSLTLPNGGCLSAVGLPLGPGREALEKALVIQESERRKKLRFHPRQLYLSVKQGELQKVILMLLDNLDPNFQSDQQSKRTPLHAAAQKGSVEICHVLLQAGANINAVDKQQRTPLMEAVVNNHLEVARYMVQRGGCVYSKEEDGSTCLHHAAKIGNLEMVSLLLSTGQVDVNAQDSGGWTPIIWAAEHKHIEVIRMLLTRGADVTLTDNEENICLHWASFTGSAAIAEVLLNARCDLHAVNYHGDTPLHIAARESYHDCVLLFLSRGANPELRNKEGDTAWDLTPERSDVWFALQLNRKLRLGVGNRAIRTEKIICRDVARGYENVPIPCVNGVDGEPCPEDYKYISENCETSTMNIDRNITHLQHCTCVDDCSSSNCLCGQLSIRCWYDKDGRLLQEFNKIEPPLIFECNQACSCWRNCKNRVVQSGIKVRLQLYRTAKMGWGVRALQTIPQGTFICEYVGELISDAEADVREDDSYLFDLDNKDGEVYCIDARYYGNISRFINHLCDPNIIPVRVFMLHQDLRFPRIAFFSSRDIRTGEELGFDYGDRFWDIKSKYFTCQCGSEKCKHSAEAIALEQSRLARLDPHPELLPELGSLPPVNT
Protocol Notes: MDA-MB-231 H3K9me2 in-cell Western assay (EHMT2 ICW)
Assay type: cell-based
Stated Conditions: MDA-MB-231 cells, H3K9me2 in-cell Western; read-out: EHMT2 ICW (IC50 μM)
Entries and their IC50

Example entries begin here.
1. COc1cc2c(cc1OCCCN1CCCC1)nc(NC(C)C)n2C
1 to 10 µM
2. COc1cc2c(cc1OCCCN1CCCC1)nc(NCC(F)(F)F)n2C
1 to 10 µM
3. CNc1nc2cc(OC[C@H](O)CN3CCCC3)c(OC)cc2n1C1CCCC1
0.1 to 1 µM

Which IC50 value is on record for `CCNc1nc2cc(OCCCN3CCCC3)c(OC)cc2n1CC` ?
0.1 to 1 µM

Quick one: IC50 of `CCN1CC[C@@H](COc2cc3nc(N)n(C4CCCC4)c3cc2OC)C1` ?
0.1 to 1 µM
